Target: GST tagged truncated human mutant G2019S LRRK2 (Homo sapiens (Human), UniProt Q5S007, G2019S)
Sequence (Q5S007 970-2527 G2019S): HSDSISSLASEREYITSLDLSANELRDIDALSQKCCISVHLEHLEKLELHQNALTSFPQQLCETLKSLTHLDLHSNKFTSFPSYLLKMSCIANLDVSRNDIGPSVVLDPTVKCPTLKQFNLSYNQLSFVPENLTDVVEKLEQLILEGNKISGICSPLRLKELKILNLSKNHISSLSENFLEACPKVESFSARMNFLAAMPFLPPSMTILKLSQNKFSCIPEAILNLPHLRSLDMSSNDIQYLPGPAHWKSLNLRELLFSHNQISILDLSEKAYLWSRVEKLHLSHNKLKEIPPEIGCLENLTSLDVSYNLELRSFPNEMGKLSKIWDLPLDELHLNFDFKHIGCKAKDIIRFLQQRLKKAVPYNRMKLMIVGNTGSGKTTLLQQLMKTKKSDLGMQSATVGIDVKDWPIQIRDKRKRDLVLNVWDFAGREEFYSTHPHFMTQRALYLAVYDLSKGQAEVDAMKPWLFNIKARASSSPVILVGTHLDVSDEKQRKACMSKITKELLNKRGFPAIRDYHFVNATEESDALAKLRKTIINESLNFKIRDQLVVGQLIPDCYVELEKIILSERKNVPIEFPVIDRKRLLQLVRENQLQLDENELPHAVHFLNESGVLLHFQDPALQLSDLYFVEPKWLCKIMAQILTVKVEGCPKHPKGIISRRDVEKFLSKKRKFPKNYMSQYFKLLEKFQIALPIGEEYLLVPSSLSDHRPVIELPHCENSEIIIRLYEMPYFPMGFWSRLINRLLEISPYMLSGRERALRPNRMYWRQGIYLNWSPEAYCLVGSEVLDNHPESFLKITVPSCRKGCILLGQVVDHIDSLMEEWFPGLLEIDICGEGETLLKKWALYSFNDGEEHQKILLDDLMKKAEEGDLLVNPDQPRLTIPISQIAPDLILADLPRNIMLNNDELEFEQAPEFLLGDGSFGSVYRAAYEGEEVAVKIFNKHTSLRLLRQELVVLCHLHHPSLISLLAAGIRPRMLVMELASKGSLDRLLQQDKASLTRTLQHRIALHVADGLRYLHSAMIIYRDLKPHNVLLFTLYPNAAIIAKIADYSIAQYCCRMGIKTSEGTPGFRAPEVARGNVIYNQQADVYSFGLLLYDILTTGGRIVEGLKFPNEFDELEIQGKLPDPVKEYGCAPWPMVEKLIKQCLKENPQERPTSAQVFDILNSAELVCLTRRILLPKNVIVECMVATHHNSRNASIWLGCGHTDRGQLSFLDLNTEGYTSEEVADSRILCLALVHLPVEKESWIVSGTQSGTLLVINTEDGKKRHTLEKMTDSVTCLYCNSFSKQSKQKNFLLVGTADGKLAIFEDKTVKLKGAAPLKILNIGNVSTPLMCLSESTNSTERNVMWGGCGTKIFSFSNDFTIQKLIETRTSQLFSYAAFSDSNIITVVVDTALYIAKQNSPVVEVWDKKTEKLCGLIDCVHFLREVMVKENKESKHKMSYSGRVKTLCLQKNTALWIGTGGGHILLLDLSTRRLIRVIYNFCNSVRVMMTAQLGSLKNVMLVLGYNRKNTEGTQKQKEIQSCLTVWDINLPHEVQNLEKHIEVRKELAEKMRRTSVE
Assay: LRRK2 Km ATP LanthaScreen Assay
Type: biochemical
Settings: G2019S LRRK2, 134 μM ATP (Km ATP), mean values; read-out: LRRK2 pIC50 (converted)
Would you mind telling me the reported IC50 of each entry?

CC(n1ncc(Nc2ncc3cc(Cl)c(C4CCN(C5COC5)CC4)cc3n2)c1Cl)C(C)(C)O (single isomer, unassigned)    < 0.631 nM
Clc1cc2cnc(Nc3cnn(C4CC4)c3Cl)nc2cc1C1CCN(C2CCOC2)CC1 (single isomer, unassigned) [Ex-4.49]    < 0.631 nM

Kindly consider the entry below.
Requested field: IC50. Item: O=S1(=O)CCC(N2CCC(c3cc4nc(Nc5cnn(CC(F)F)c5Cl)ncc4cc3Cl)CC2)C1 (racemic)
< 0.631 nM

----------
Target: GST tagged truncated human mutant G2019S LRRK2 (Homo sapiens (Human), UniProt Q5S007, G2019S)
Assay: LRRK2 Km ATP LanthaScreen Assay
Format: biochemical
Details: G2019S LRRK2, 134 μM ATP (Km ATP), mean values
property measured: LRRK2 pIC50

O[C@@H]1COC[C@@H]1N1CC[C@@H](c2cc3nc(Nc4cnn(C56CC(C5)C6)c4)ncc3cc2Cl)[C@H](F)C1 (single isomer, unassigned)    >9.20

List LRRK2 pIC50 for every entry below, keeping the order given.
1. CC1(n2ncc(Nc3ncc4cc(Cl)c([C@@H]5CCN(C6COC6)C[C@H]5F)cc4n3)c2Cl)CC1 (single isomer, unassigned)
2. Cc1c(Nc2ncc3cc(Cl)c([C@@H]4CCN([C@@H]5COC[C@@H]5O)C[C@H]4F)cc3n2)cnn1C (single isomer, unassigned)

1. >9.20
2. >9.20

----------
Molecular target: GST tagged truncated human mutant G2019S LRRK2 (Homo sapiens (Human), UniProt Q5S007, G2019S)
Test: LRRK2 Km ATP LanthaScreen Assay
Assay type: biochemical
Settings: G2019S LRRK2, 134 μM ATP (Km ATP), mean values
property measured: LRRK2 pIC50

[2H]C1([2H])OC([2H])([2H])C1([2H])N1CCC(c2cc3nc(Nc4cnn(CC(C)(C)O)c4Cl)ncc3cc2Cl)CC1    >9.20
Cc1cc2cnc(Nc3cnn(C4CC4(F)F)c3C)nc2cc1C1CCN([C@@H]2COC[C@@H]2O)CC1 (single isomer, unassigned)    8.94
CC1OCC1N1CCC(c2cc3nc(Nc4cnn(C5CC5)c4Cl)ncc3cc2Cl)CC1 (single isomer, unassigned) [Ex-4.47]    7.62
Cc1c(Nc2ncc3cc(Cl)c(C4CCN(C5CCC(CC#N)C5)CC4)cc3n2)cnn1C1CC1 (single isomer, unassigned) [Ex-4.169]    8.25

Kindly consider the entry below.
Requested field: LRRK2 pIC50. Item: Cc1cc2cnc(Nc3cnn(C)c3C)nc2cc1C1CCN([C@@H]2COC[C@@H]2O)CC1 (single isomer, unassigned)
>9.20

----------
Would you mind telling me the reported IC50 of each entry?
Target: GST tagged truncated human mutant G2019S LRRK2 (Homo sapiens (Human), UniProt Q5S007, G2019S)
Assay: LRRK2 Km ATP LanthaScreen Assay
Type: biochemical
Conditions: G2019S LRRK2, 134 μM ATP (Km ATP), mean values; read-out: LRRK2 pIC50 (converted)

Reference set (3 entries):
Cc1c(Nc2ncc3cc(Cl)c(C4CCN(C5COC5)[C@@H](C)C4)cc3n2)cnn1C1CC1 (single isomer, unassigned)    < 0.631 nM
CC(n1ncc(Nc2ncc3cc(Cl)c(C4CCN(C5COC5)CC4)cc3n2)c1Cl)C(F)(F)F (single isomer, unassigned)    < 0.631 nM
CC1(N2CCC(n3cc(Nc4ncc5cc(Cl)c(C6CC67CC7)cc5n4)cn3)CC2)COC1 (single isomer, unassigned) [Ex-2.6]    < 0.631 nM

Kindly consider the entry below.
Requested field: IC50. Item: Cc1cc2cnc(Nc3cnn(C4CC4)c3Cl)nc2cc1C1CCN([C@@]2(C)COC[C@H]2O)CC1 (single isomer, unassigned)
< 0.631 nM

Values were extracted from patent US12540131B2.
